- test-system: T1, Monomeric His-tagged human PD-L1 (Acro biosystems PD1-H5229) (human, UniProt Q9NZQ7 19-238)
- T1 construct: also called hPD-L1-his; PD-L1-his
- T1 sequence (Q9NZQ7 19-238 limits assumed): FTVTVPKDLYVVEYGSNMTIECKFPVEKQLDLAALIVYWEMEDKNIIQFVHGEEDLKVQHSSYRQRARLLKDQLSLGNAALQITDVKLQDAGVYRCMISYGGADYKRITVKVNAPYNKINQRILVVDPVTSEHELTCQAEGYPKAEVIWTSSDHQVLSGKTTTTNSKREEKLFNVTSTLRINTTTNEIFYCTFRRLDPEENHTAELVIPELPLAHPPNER
- test-method-notes: SPR Biacore T200, Fcab captured on protein A chip, monomeric antigen in flow, 1:1 fit
Reported pKd values for a set of binders
Field pKd (float): negative decimal logarithm of the concentration in molar.

[[record]]
binder = "Fcab FS17-33-288 (designed binder) TCPPCPAPELLGGPSVFLFPPKPKDTLMISRTPEVTCVVVDVSHEDPEVKFNWYVDGVEVHNAKTKPREEQYNSTYRVVSVLTVLHQDWLNGKEYKCKVSNKALPAPIEKTISKAKGQPREPQVYTLPPSRDESGYWVSLTCLVKGFYPSDIVVEWESNGEPQYWAKTTPPVLDSDGSFFLYSKLTVSNWRWQIDDFSCSVMHEALHNHYTQKSLSLSPGK"
quantitative_readout = 8.80


Recorded pKd of Fcab FS17-33-116 (designed binder) TCPPCPAPELLGGPSVFLFPPKPKDTLMISRTPEVTCVVVDVSHEDPEVKFNWYVDGVEVHNAKTKPREEQYNSTYRVVSVLTVLHQDWLNGKEYKCKVSNKALPAPIEKTISKAKGQPREPQVYTLPPSRDESGYWVSLTCLVKGFYPSDIVVEWESNGEPQYWAKTTPPVLDSDGSFFLYSKLTVSNWRWQMDDFSCSVMHEALHNHYTQKSLSLSPGK , please.
9.48
